- Experimental target: Cathepsin D (Homo sapiens)
- Sequence (P07339 65-162 limits assumed): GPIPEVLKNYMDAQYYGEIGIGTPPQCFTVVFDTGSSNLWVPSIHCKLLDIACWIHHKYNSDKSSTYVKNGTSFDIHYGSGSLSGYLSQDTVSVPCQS
- Sequence (P07339 169-412 limits assumed): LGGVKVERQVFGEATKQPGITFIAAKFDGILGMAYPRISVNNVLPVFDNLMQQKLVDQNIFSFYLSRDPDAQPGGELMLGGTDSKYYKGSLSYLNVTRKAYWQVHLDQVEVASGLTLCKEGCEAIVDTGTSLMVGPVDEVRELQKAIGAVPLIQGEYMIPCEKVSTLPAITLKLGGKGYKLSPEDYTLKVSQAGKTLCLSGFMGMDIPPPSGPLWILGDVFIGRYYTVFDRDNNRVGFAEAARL
- Protocol text: Inhibition of human recombinant CatD using Mca-GKPILFFRLK(DNP)-dR-NH2 as substrate after 1 hr by fluorescence analysis
pIC50: −log10 of the molar value.
Metric: pIC50

| Compound | pIC50 |
| --- | --- |
| C[C@@H](Oc1cc(C[C@@H]2CS(=O)(=O)C[C@H](NCc3cccc(C(C)(C)C)c3)[C@H]2O)cc(F)c1N)C(F)(F)F | 6.32 |
| CC(C)(O)c1cccc(CN[C@H]2CS(=O)(=O)C[C@@H](Cc3cc(F)c(N)c(OC(C(F)(F)F)C(F)(F)F)c3)[C@@H]2O)c1 | 5.88 |
| CC(C)(C)c1cccc(CN[C@H]2CS(=O)(=O)C[C@@H](Cc3ccc4[nH]cc(CC(F)(F)F)c4c3)[C@@H]2O)c1 (racemic) | 5.83 |

(1) CCc1cc(C[C@@H]2CS(=O)(=O)C[C@H](NCc3cccc(C(C)(C)C)c3)[C@H]2O)cc(F)c1N
(2) CC(C)(C)c1cccc(CN[C@H]2CS(=O)(=O)C[C@@H](Cc3cc(F)c(N)c(OC4CCC4)c3)[C@@H]2O)c1
(3) CC(C)(C)c1cccc(CN[C@H]2CS(=O)(=O)C[C@@H](Cc3ccc4[nH]cc(CC(F)F)c4c3)[C@@H]2O)c1 (racemic)
Request: Put the compounds in ascending order of pIC50. Provide your answer as the labels ordered per the instruction.
Result: 1, 3, 2
